Data origin, for the record: ChEMBL document CHEMBL1926518

System: Moraxella catarrhalis
assayProcedure: Antibacterial activity against Moraxella catarrhalis ATCC 23246 by broth microdilution technique
Format: functional
assayEndpoint: MIC (µg/mL)
Just the number please, in µg/mL, no unit attached.

| smilesStructure | assayEndpoint | endpointResult |
| --- | --- | --- |
| CCOC(=O)c1cn(C2CC2)c2ccc(C#CCN3CCN(CCC(=O)O[C@H]4[C@H](C)O[C@@H](O[C@H]5[C@H](C)[C@@H](O[C@@H]6O[C@H](C)C[C@H](N(C)C)[C@H]6O)[C@](C)(O)C[C@@H](C)CN(C)[C@H](C)[C@@H](OC)[C@](C)(O)[C@@H](CC)OC(=O)[C@@H]5C)C[C@@]4(C)OC)CC3)cc2c1=O | MIC | 4 |
| CCOC(=O)c1cn(CC)c2ccc(CCCN3CCN(CCC(=O)O[C@H]4[C@H](C)O[C@@H](O[C@H]5[C@H](C)[C@@H](O[C@@H]6O[C@H](C)C[C@H](N(C)C)[C@H]6O)[C@](C)(O)C[C@@H](C)CN(C)[C@H](C)[C@@H](OC)[C@](C)(O)[C@@H](CC)OC(=O)[C@@H]5C)C[C@@]4(C)OC)CC3)cc2c1=O | MIC | 0.25 |
| CCOC(=O)c1cn(C2CC2)c2ccc(C#CCN3CCN(CCC(=O)O[C@H]4[C@H](C)O[C@@H](O[C@H]5[C@H](C)[C@@H](O[C@@H]6O[C@H](C)C[C@H](N(C)C)[C@H]6O)[C@](C)(OC)C[C@@H](C)C(=O)[C@H](C)[C@@H](O)[C@](C)(O)[C@@H](CC)OC(=O)[C@@H]5C)C[C@@]4(C)OC)CC3)cc2c1=O | MIC | 4 |
| CCOC(=O)c1cn(CC)c2ccc(CCCN3CCN(CCC(=O)O[C@H]4[C@H](C)O[C@@H](O[C@H]5[C@H](C)[C@@H](O[C@@H]6O[C@H](C)C[C@H](N(C)C)[C@H]6O)[C@](C)(O)C[C@@H](C)CN(C)[C@H](C)[C@@H](O)[C@](C)(O)[C@@H](CC)OC(=O)[C@@H]5C)C[C@@]4(C)OC)CC3)cc2c1=O | MIC | 0.25 |

Lab note: next compound to report on.
Fill in reported MIC for this entry: CC[C@H]1OC(=O)[C@H](C)[C@@H](O[C@H]2C[C@@](C)(OC)[C@@H](OC(=O)CCN3CCN(CCCc4ccc5c(c4)c(=O)c(C(=O)O)cn5CC)CC3)[C@H](C)O2)[C@H](C)[C@@H](O[C@@H]2O[C@H](C)C[C@H](N(C)C)[C@H]2O)[C@](C)(O)C[C@@H](C)CN(C)[C@H](C)[C@@H](OC)[C@]1(C)O 0.5

* * *

Tested on: Moraxella catarrhalis
assayProcedure: Antibacterial activity against Moraxella catarrhalis ATCC 23246 by broth microdilution technique
Format: functional
assayEndpoint: MIC (µg/mL)
Just the number please, in µg/mL, no unit attached.

| smilesStructure | MIC [µg/mL] |
| --- | --- |
| CC[C@H]1OC(=O)[C@H](C)[C@@H](O[C@H]2C[C@@](C)(OC)[C@@H](OCCCN3CCN(C/C=C/c4ccc5c(c4)c(=O)c(C(=O)O)cn5CC)CC3)[C@H](C)O2)[C@H](C)[C@@H](O[C@@H]2O[C@H](C)C[C@H](N(C)C)[C@H]2O)[C@](C)(O)C[C@@H](C)CN(C)[C@H](C)[C@@H](O)[C@]1(C)O | 0.5 |

Lab note: next compound to report on.
Fill in reported MIC for this entry: CCOC(=O)c1cn(CC)c2ccc(C#CCN3CCN(CCC(=O)O[C@H]4[C@H](C)O[C@@H](O[C@H]5[C@H](C)[C@@H](O[C@@H]6O[C@H](C)C[C@H](N(C)C)[C@H]6O)[C@](C)(OC)C[C@@H](C)C(=O)[C@H](C)[C@@H](O)[C@](C)(O)[C@@H](CC)OC(=O)[C@@H]5C)C[C@@]4(C)OC)CC3)cc2c1=O 1

* * *

Test system: Streptococcus pneumoniae
assayProcedure: Antibacterial activity against constitutive macrolide, licosamide and streptogramin-resistant Streptococcus pneumoniae 58 Spain by broth microdilution technique
Format: functional
assayEndpoint: MIC

Fill in reported MIC for this entry: CCOC(=O)c1cn(CC)c2ccc(C#CCN3CCNCC3)cc2c1=O > 64 µg/mL

Fill in reported MIC for this entry: CCOC(=O)c1cn(CC)c2ccc(CCCN3CCN(CCC(=O)O[C@H]4[C@H](C)O[C@@H](O[C@H]5[C@H](C)[C@@H](O[C@@H]6O[C@H](C)C[C@H](N(C)C)[C@H]6O)[C@](C)(OC)C[C@@H](C)C(=O)[C@H](C)[C@@H](O)[C@](C)(O)[C@@H](CC)OC(=O)[C@@H]5C)C[C@@]4(C)OC)CC3)cc2c1=O 8 µg/mL

Fill in reported MIC for this entry: CC[C@H]1OC(=O)[C@H](C)[C@@H](O[C@H]2C[C@@](C)(OC)[C@@H](O)[C@H](C)O2)[C@H](C)[C@@H](O[C@@H]2O[C@H](C)C[C@H](N(C)C)[C@H]2O)[C@](C)(O)C[C@@H](C)CN(C)[C@H](C)[C@@H](O)[C@]1(C)O > 64 µg/mL

Fill in reported MIC for this entry: CCOC(=O)c1cn(CC)c2ccc(C#CCN3CCN(CCC(=O)O[C@H]4[C@H](C)O[C@@H](O[C@H]5[C@H](C)[C@@H](O[C@@H]6O[C@H](C)C[C@H](N(C)C)[C@H]6O)[C@](C)(OC)C[C@@H](C)C(=O)[C@H](C)[C@@H](O)[C@](C)(O)[C@@H](CC)OC(=O)[C@@H]5C)C[C@@]4(C)OC)CC3)cc2c1=O ≤ 0.125 µg/mL

Fill in reported MIC for this entry: CCOC(=O)c1cn(CC)c2ccc(/C=C/CN3CCNCC3)cc2c1=O > 64 µg/mL

Fill in reported MIC for this entry: CCOC(=O)c1cn(CC)c2ccc(CCCN3CCN(CCC(=O)O[C@H]4[C@H](C)O[C@@H](O[C@H]5[C@H](C)[C@@H](O[C@@H]6O[C@H](C)C[C@H](N(C)C)[C@H]6O)[C@](C)(O)C[C@@H](C)CN(C)[C@H](C)[C@@H](OC)[C@](C)(O)[C@@H](CC)OC(=O)[C@@H]5C)C[C@@]4(C)OC)CC3)cc2c1=O 8 µg/mL

Fill in reported MIC for this entry: CCOC(=O)c1cn(C2CC2)c2ccc(C#CCN3CCN(C(=O)OC(C)(C)C)CC3)cc2c1=O > 64 µg/mL

* * *

The following compounds are shown together with reported MIC values.
Tested on: Streptococcus pneumoniae
assayProcedure: Antibacterial activity against constitutive macrolide, licosamide and streptogramin-resistant Streptococcus pneumoniae 58 Spain by broth microdilution technique
Type: functional

| smilesStructure | endpointResult |
| --- | --- |
| CCOC(=O)c1cn(CC)c2ccc(C#CCN3CCN(C(=O)OC(C)(C)C)CC3)cc2c1=O | > 64 µg/mL |
| CCOC(=O)c1cn(C2CC2)c2ccc(C#CCN3CCN(CCC(=O)O[C@H]4[C@H](C)O[C@@H](O[C@H]5[C@H](C)[C@@H](O[C@@H]6O[C@H](C)C[C@H](N(C)C)[C@H]6O)[C@](C)(O)C[C@@H](C)CN(C)[C@H](C)[C@@H](OC)[C@](C)(O)[C@@H](CC)OC(=O)[C@@H]5C)C[C@@]4(C)OC)CC3)cc2c1=O | 0.5 µg/mL |
| CCOC(=O)c1cn(C2CC2)c2ccc(C#CCN3CCN(CCC(=O)O[C@H]4[C@H](C)O[C@@H](O[C@H]5[C@H](C)[C@@H](O[C@@H]6O[C@H](C)C[C@H](N(C)C)[C@H]6O)[C@](C)(OC)C[C@@H](C)C(=O)[C@H](C)[C@@H](O)[C@](C)(O)[C@@H](CC)OC(=O)[C@@H]5C)C[C@@]4(C)OC)CC3)cc2c1=O | 4 µg/mL |

Fill in reported MIC for this entry: CCOC(=O)c1cn(CC)c2ccc(C#CCN3CCN(CCC(=O)O[C@H]4[C@H](C)O[C@@H](O[C@H]5[C@H](C)[C@@H](O[C@@H]6O[C@H](C)C[C@H](N(C)C)[C@H]6O)[C@](C)(O)C[C@@H](C)CN(C)[C@H](C)[C@@H](O)[C@](C)(O)[C@@H](CC)OC(=O)[C@@H]5C)C[C@@]4(C)OC)CC3)cc2c1=O ≤ 0.125 µg/mL

Fill in reported MIC for this entry: CC[C@H]1OC(=O)[C@H](C)[C@@H](O[C@H]2C[C@@](C)(OC)[C@@H](OC(=O)CCN3CCN(CC#Cc4ccc5c(c4)c(=O)c(C(=O)O)cn5CC)CC3)[C@H](C)O2)[C@H](C)[C@@H](O[C@@H]2O[C@H](C)C[C@H](N(C)C)[C@H]2O)[C@](C)(O)C[C@@H](C)CN(C)[C@H](C)[C@@H](OC)[C@]1(C)O 4 µg/mL

Fill in reported MIC for this entry: CCOC(=O)c1cn(CC)c2ccc(CCCN3CCN(CCC(=O)O[C@H]4[C@H](C)O[C@@H](O[C@H]5[C@H](C)[C@@H](O[C@@H]6O[C@H](C)C[C@H](N(C)C)[C@H]6O)[C@](C)(O)C[C@@H](C)CN(C)[C@H](C)[C@@H](O)[C@](C)(O)[C@@H](CC)OC(=O)[C@@H]5C)C[C@@]4(C)OC)CC3)cc2c1=O ≤ 0.125 µg/mL

Fill in reported MIC for this entry: CC[C@H]1OC(=O)[C@H](C)[C@@H](O[C@H]2C[C@@](C)(OC)[C@@H](OC(=O)CCN3CCN(CCCc4ccc5c(c4)c(=O)c(C(=O)O)cn5CC)CC3)[C@H](C)O2)[C@H](C)[C@@H](O[C@@H]2O[C@H](C)C[C@H](N(C)C)[C@H]2O)[C@](C)(O)C[C@@H](C)CN(C)[C@H](C)[C@@H](OC)[C@]1(C)O ≤ 0.125 µg/mL
